Molecular target: Voltage-dependent T-type calcium channel subunit alpha-1H (Homo sapiens, UniProt O95180);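 note: channel activity triggered by adding a high calcium stimulation buffer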
Sequence (O95180 whole entry): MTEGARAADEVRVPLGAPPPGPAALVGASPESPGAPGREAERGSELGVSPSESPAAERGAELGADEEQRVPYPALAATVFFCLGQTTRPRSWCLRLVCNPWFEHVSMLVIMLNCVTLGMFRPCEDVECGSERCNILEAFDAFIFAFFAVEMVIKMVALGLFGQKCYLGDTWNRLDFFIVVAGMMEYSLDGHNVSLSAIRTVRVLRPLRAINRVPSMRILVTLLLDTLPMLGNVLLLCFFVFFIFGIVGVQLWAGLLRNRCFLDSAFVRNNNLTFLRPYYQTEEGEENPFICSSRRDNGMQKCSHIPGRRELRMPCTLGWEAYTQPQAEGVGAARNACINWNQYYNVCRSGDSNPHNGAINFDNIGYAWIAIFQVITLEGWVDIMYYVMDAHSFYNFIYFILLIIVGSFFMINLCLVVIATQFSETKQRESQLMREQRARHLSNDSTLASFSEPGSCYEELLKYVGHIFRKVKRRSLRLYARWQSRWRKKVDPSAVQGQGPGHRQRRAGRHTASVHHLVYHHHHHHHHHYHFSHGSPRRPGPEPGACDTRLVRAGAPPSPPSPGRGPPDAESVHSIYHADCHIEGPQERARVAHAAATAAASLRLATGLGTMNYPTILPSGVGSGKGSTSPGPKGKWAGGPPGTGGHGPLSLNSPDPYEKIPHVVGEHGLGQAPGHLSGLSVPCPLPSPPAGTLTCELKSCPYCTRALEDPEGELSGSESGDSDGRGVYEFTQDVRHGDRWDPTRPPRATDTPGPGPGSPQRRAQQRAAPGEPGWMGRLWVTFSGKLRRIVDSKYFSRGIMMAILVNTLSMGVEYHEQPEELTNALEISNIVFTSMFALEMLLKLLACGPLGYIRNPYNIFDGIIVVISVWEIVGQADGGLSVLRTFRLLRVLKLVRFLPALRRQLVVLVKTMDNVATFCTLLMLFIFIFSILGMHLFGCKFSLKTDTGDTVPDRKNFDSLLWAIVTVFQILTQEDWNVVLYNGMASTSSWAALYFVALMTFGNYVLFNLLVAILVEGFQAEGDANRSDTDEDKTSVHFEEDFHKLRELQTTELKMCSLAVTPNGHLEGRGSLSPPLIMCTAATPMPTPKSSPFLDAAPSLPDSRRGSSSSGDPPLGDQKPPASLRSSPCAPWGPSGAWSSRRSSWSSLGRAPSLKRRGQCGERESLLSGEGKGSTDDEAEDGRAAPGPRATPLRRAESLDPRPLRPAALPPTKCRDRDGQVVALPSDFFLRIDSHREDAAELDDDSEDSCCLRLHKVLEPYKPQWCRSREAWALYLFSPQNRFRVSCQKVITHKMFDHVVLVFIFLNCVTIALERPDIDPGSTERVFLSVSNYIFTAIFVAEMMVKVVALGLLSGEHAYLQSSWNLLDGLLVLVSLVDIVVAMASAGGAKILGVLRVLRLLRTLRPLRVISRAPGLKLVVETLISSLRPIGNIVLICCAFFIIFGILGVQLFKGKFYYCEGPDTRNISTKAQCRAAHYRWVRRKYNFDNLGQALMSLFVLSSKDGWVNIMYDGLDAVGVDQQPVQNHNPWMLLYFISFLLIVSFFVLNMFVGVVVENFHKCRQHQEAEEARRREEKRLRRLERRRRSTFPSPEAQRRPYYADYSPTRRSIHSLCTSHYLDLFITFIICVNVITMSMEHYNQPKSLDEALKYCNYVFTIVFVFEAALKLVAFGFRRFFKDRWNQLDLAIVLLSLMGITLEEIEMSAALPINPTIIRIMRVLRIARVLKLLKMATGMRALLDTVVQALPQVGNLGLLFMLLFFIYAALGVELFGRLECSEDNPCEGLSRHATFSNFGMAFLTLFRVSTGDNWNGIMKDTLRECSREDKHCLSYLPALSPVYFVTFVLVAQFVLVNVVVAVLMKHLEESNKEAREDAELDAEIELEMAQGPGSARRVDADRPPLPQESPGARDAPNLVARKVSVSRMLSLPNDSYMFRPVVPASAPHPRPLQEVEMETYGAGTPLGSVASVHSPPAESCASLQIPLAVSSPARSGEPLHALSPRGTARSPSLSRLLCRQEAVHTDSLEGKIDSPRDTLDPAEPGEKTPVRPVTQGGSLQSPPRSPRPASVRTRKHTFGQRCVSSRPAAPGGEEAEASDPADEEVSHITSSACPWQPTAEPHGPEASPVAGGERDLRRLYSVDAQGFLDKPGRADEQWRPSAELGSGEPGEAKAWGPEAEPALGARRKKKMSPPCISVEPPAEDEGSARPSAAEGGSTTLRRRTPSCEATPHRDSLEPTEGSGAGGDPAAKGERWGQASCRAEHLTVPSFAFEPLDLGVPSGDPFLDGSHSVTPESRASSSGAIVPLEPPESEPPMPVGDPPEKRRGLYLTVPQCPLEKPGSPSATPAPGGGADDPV
Format: functional
Active and inactive are the calls of the source.
For each record, write down the corresponding EC50.

EC50 reported for this molecule `CCOc1cc(CNc2ccccc2)cc(Br)c1OCC(=O)NC(C)(C)C` : 15.4 µM (active)

Notebook: `Cc1cc(C)nc(SCc2nnc(SCC(=O)Nc3ccc(C)c(C)c3)n2Cc2ccco2)n1` , EC50 read as 4.05 µM (active)

Lab note: measured EC50 of `O=S(=O)(c1ccc2c(c1)C(=NO)c1cc(S(=O)(=O)N3CCCCC3)ccc1-2)N1CCCCC1` was 12.3 µM (active)

Per the records, this molecule ( `CC(C)(C)Cc1nc2ccccc2n1CCc1ccccc1` ) has EC50 equal to 7.13 µM (active)

Notebook: `Cc1ccc(C)c(N2CCN(C(=O)Cc3cn(C)c4ccccc34)CC2)c1` , EC50 read as 9.19 µM (active)

// `O=C(/C=C/c1ccc2c(c1)OCO2)NCCSCc1ccc(Cl)cc1Cl` : EC50 value = 4.94 µM (active)
